Overview of recorded survival for various compounds
Tested on: PPC-1 thapsigargin-induced death, ATPlite luminescence, 24 h
Experiment: protection of PPC-1 cells from thapsigargin, SAR follow-up, human prostate cancer PPC-1, ATP luminescence (AID 1351)
Conditions: measured here: survival at thapsigargin 15 uM; at 25 µM; stronger effect = higher value

Compound | Tested on | survival [%]
COc1ccc(C2CC(=O)C3=C(C2)Nc2ccccc2NC3c2ccccc2C(F)(F)F)cc1OC (stereo unspecified) | PPC-1 thapsigargin-induced death, ATPlite luminescence, 24 h | 108
COc1ccc(C2CC(=O)C3=C(C2)Nc2ccccc2NC3c2cc(C)ccc2C)cc1 (stereo unspecified) | PPC-1 thapsigargin-induced death, ATPlite luminescence, 24 h | 83
COc1ccc(C2CC(=O)C3=C(C2)Nc2ccccc2NC3c2cccc(C(F)(F)F)c2)cc1OC (stereo unspecified) | PPC-1 thapsigargin-induced death, ATPlite luminescence, 24 h | 99
CCOc1cc(C2Nc3ccccc3NC3=C2C(=O)CC(c2ccc(OC)cc2)C3)cc(Cl)c1O (stereo unspecified) | PPC-1 thapsigargin-induced death, ATPlite luminescence, 24 h | 11
COc1ccc(C2CC(=O)C3=C(C2)Nc2ccccc2NC3c2cccc(Oc3ccccc3)c2)cc1OC (stereo unspecified) | PPC-1 thapsigargin-induced death, ATPlite luminescence, 24 h | 95
CCOc1cccc(C2Nc3ccccc3NC3=C2C(=O)CC(c2ccc(OC)cc2)C3)c1 (stereo unspecified) | PPC-1 thapsigargin-induced death, ATPlite luminescence, 24 h | 14
CC1(C)CC(=O)C2=C(C1)Nc1ccccc1NC2c1ccc(-c2ccccc2)cc1 (stereo unspecified) | PPC-1 thapsigargin-induced death, ATPlite luminescence, 24 h | 86
CSc1ccc(C2Nc3ccccc3NC3=C2C(=O)CC(c2ccccc2)C3)cc1 (stereo unspecified) | PPC-1 thapsigargin-induced death, ATPlite luminescence, 24 h | 52
COc1ccc(C2CC(=O)C3=C(C2)Nc2ccccc2NC3c2cccc(Br)c2)cc1OC (stereo unspecified) | PPC-1 thapsigargin-induced death, ATPlite luminescence, 24 h | 102
CCCOc1ccc(C2Nc3ccccc3NC3=C2C(=O)CC(c2ccc(OC)c(OC)c2)C3)cc1 (stereo unspecified) | PPC-1 thapsigargin-induced death, ATPlite luminescence, 24 h | 75
O=C1CC(c2ccccc2)CC2=C1C(c1c(F)cccc1Cl)Nc1ccccc1N2 (stereo unspecified) | PPC-1 thapsigargin-induced death, ATPlite luminescence, 24 h | 35
